The reported numbers originate from PubChem BioAssay AID651812.

# PROTOCOL_DETAILS: qHTS for inhibitors of Vif-A3G interactions: Cherry picks; note: nearly all actives have a fitted effect of over 80% in size
# SETUP_CONDITIONS: HeLa A3G-eYFP + Vif, 24 h; eYFP fluorescence increase; series mostly up to 36.9 µM
Out of some 2,100 compounds screened, about 650 (31%) were called active. Another 16% or so got no clear call; they are omitted. Calls come from the whole dose curve; as a rule, active = well fitted inhibition curve with a large enough effect; inconclusive = small, poorly fitted or top-dose-only effect; inactive = flat fitted curve, though single readings scatter. The list shows a part of the results.
Possible outcomes: class 1 = active, class 0 = inactive

{"COMPOUND": "COc1cc(C2Nc3ccc4ncccc4c3C3=C2C(=O)CCC3)cc(OC)c1O (stereo not given)", "CLASS_ASSIGNMENT": "class 0"}
{"COMPOUND": "CN(C)c1ccc(/C=N/NC(=O)c2ccccc2Cl)cc1", "CLASS_ASSIGNMENT": "class 0"}
{"COMPOUND": "CN(/N=C/c1ccc(N(C)C)cc1)C1=NS(=O)(=O)c2ccccc21", "CLASS_ASSIGNMENT": "class 1"}
{"COMPOUND": "COc1cccc(C(=O)Nc2sc3c(c2C#N)CCN(C(C)=O)C3)c1", "CLASS_ASSIGNMENT": "class 0"}
{"COMPOUND": "CCN1CCc2c(sc(NC(=O)c3ccc(S(=O)(=O)N(CC)c4ccccc4)cc3)c2C(N)=O)C1", "CLASS_ASSIGNMENT": "class 1"}

* * *

# PROTOCOL_DETAILS: qHTS for inhibitors of Vif-A3G interactions: Cherry picks; note: nearly all actives have a fitted effect of over 80% in size
# SETUP_CONDITIONS: HeLa A3G-eYFP + Vif, 24 h; eYFP fluorescence increase; series mostly up to 36.9 µM
The whole screen tested about 2,100 compounds, of which about 650 (31%) were called active. Another 16% or so got no clear call; they are omitted. Calls follow the shape of the dose curve; as a rule, active = well fitted inhibition curve with a large enough effect; inconclusive = small, poorly fitted or top-dose-only effect; inactive = flat fitted curve, though single readings scatter. This is one part of the list.
Possible outcomes: y for active, n for inactive

{"CPD_SMILES": "COc1cc(C(=O)NCCOc2cc(C)cc(C)c2)c(Br)c(OC)c1OC", "CLASS_ASSIGNMENT": "n"}
{"CPD_SMILES": "Cc1cccc2cc3c(N)c(C(=O)Nc4ccc(N5CCOCC5)cc4)sc3nc12", "CLASS_ASSIGNMENT": "y"}
{"CPD_SMILES": "COc1ccc(NC(=O)c2oc3ccc(S(=O)(=O)N4CCOCC4)cc3c2C)cc1", "CLASS_ASSIGNMENT": "n"}
{"CPD_SMILES": "Cc1cc2nc(-c3ccc(SCC(=O)Nc4ccc(S(=O)(=O)N5CCCC5)cc4)nc3)[nH]c2cc1C", "CLASS_ASSIGNMENT": "n"}
{"CPD_SMILES": "O=C(Nc1ccc(N2CCOCC2)cc1)c1cccc2ccccc12", "CLASS_ASSIGNMENT": "n"}
{"CPD_SMILES": "COc1cc(C(=O)NCCOc2cc(C)cc(C)c2)cc(OC)c1OC", "CLASS_ASSIGNMENT": "n"}
{"CPD_SMILES": "COC(=O)Nc1ccc(S(=O)(=O)N2CCCc3ccccc32)cc1", "CLASS_ASSIGNMENT": "n"}
{"CPD_SMILES": "COc1cccc(C(=O)Nc2ccc(N3CCCC3)cc2)c1", "CLASS_ASSIGNMENT": "n"}
{"CPD_SMILES": "Cc1c(C(=O)Nc2ccc(C(C)C)cc2)sc2nc3n(c(=O)c12)CCC3", "CLASS_ASSIGNMENT": "n"}
{"CPD_SMILES": "Nc1c(C(=O)Nc2ccc(S(=O)(=O)N3CCCC3)cc2)sc2nc3ccc(OC(F)(F)F)cc3cc12", "CLASS_ASSIGNMENT": "y"}

* * *

# PROTOCOL_DETAILS: qHTS for inhibitors of Vif-A3G interactions: Cherry picks; note: nearly all actives have a fitted effect of over 80% in size
# SETUP_CONDITIONS: HeLa A3G-eYFP + Vif, 24 h; eYFP fluorescence increase; series mostly up to 36.9 µM
About 650 (31%) of roughly 2,100 compounds were called active. Not shown: some 16% with an inconclusive outcome. Calls come from the whole dose curve; as a rule, active = well fitted inhibition curve with a large enough effect; inconclusive = small, poorly fitted or top-dose-only effect; inactive = flat fitted curve, though single readings scatter. This is one part of the list.
Possible outcomes: true (1) for active, false (0) for inactive

{"MOLECULE": "O=C(C[n+]1cccc2cccc(O)c21)c1ccc2ccccc2c1", "CLASS_ASSIGNMENT": "false (0)"}
{"MOLECULE": "CCCCN1C(=O)C2Cc3c([nH]c4ccccc34)CN2C1=S (stereo unspecified)", "CLASS_ASSIGNMENT": "true (1)"}
{"MOLECULE": "CC1(C(=O)NCc2ccco2)Cc2c(-c3ccc(C(N)=O)cc3)ccnc2O1 (stereo unspecified)", "CLASS_ASSIGNMENT": "false (0)"}
{"MOLECULE": "O=C(C[n+]1cccc2cc(Cl)ccc21)c1ccc(I)cc1", "CLASS_ASSIGNMENT": "true (1)"}
{"MOLECULE": "COc1cc(C(=O)N/N=C(\\C)c2ccccn2)cc(OC)c1OC", "CLASS_ASSIGNMENT": "false (0)"}
{"MOLECULE": "O=C(c1ccccc1)C(CN1CCCCC1)c1ccccc1 (stereo unspecified)", "CLASS_ASSIGNMENT": "false (0)"}
{"MOLECULE": "Nc1c(C(=O)c2ccccc2)sc2nsc(SCCN3CCOCC3)c12", "CLASS_ASSIGNMENT": "true (1)"}
{"MOLECULE": "COc1cc2c(cc1OC)CN(C(=O)/C=C/c1cccs1)CC2", "CLASS_ASSIGNMENT": "false (0)"}
{"MOLECULE": "CC(C)(C)c1ccc(C(=O)C[n+]2cccc3cc(Cl)ccc32)cc1", "CLASS_ASSIGNMENT": "true (1)"}
{"MOLECULE": "COc1ccc(NC(=S)NN(C)C(=S)Nc2ccc(OC)cc2)cc1", "CLASS_ASSIGNMENT": "false (0)"}
{"MOLECULE": "COc1ccccc1/C=N/NC(=S)Nc1cccnc1", "CLASS_ASSIGNMENT": "false (0)"}

* * *

# PROTOCOL_DETAILS: qHTS for inhibitors of Vif-A3G interactions: Cherry picks; note: nearly all actives have a fitted effect of over 80% in size; note: potency is the fitted concentration of half-maximal effect
# SETUP_CONDITIONS: HeLa A3G-eYFP + Vif, 24 h; eYFP fluorescence increase; series mostly up to 36.9 µM
Screen size: about 2,100 compounds; about 650 (31%) were called active. Another 16% or so got no clear call; they are omitted. The list shows a part of the results.
RECORDED_ENDPOINT: Potency

{"COMPOUND": "O=c1oc2c3c4c(cc2c(C(F)(F)F)c1CCN1CCOCC1)CCCN4CCC3", "ENDPOINT_RESULT": "7.31 µM (active)"}
{"COMPOUND": "Cc1cc(/C=C2\\SC(=S)N(C)C2=O)c(C)n1-c1ccccc1O", "ENDPOINT_RESULT": "23.1 µM (active)"}
{"COMPOUND": "Cc1cc(/C=C2\\SC(=Nc3ccccc3)NC2=O)c(C)n1-c1ccc(S(N)(=O)=O)cc1", "ENDPOINT_RESULT": "inactive"}
{"COMPOUND": "O=S(=O)(Nc1nc2ccccc2nc1N1CCN(c2ccccc2)CC1)c1ccc(F)cc1", "ENDPOINT_RESULT": "inactive"}
{"COMPOUND": "Cc1cc(/C=C2\\SC(=S)N(C)C2=O)c(C)n1-c1ccc(O)cc1", "ENDPOINT_RESULT": "20.6 µM (active)"}
{"COMPOUND": "CCN(CC)c1ccc(/C=N/NC(=O)c2ccco2)c(O)c1", "ENDPOINT_RESULT": "inactive"}
{"COMPOUND": "O=C(N=c1ccn(-c2nc3ccccc3nc2NS(=O)(=O)c2ccc(Cl)cc2)cc1)c1cccs1", "ENDPOINT_RESULT": "16.4 µM (active)"}
{"COMPOUND": "O=S(=O)(Nc1nc2ccccc2nc1N1CCN(c2ccccn2)CC1)c1ccc(Cl)cc1", "ENDPOINT_RESULT": "23.1 µM (active)"}
{"COMPOUND": "CC(=O)Nc1cccc(-c2ccnc3c2CC(C)(C(=O)NCc2ccccc2)O3)c1 (stereo not given)", "ENDPOINT_RESULT": "inactive"}
{"COMPOUND": "CCn1c(SCC(=O)Nc2cccc(O)c2)nc2c1c(=O)n(C)c(=O)n2C", "ENDPOINT_RESULT": "inactive"}

* * *

# PROTOCOL_DETAILS: qHTS for inhibitors of Vif-A3G interactions: Cherry picks; note: nearly all actives have a fitted effect of over 80% in size
# SETUP_CONDITIONS: HeLa A3G-eYFP + Vif (tagged APOBEC3G with the HIV-1 protein that degrades it), 24 h; eYFP fluorescence increase; series mostly up to 36.9 µM
The whole screen tested about 2,100 compounds, of which about 650 (31%) were called active. Inconclusive results (about 16%) are left out. Calls come from the whole dose curve; as a rule, active = well fitted inhibition curve with a large enough effect; inconclusive = small, poorly fitted or top-dose-only effect; inactive = flat fitted curve, though single readings scatter. Some of the results follow.
Possible outcomes: active, inactive

{"COMPOUND": "Cc1sc(-c2cc3c([nH]c2=O)CC(c2ccccc2)CC3=O)nc1-c1ccc(Cl)cc1 (stereo not given)", "CLASS_ASSIGNMENT": "active"}
{"COMPOUND": "O=C1CC(c2ccccc2)Cc2[nH]c(=O)c(-c3nc(-c4cccc(Cl)c4)cs3)cc21 (stereo not given)", "CLASS_ASSIGNMENT": "inactive"}
{"COMPOUND": "CCn1ncc(/C=N\\NC(=O)c2csc3ccccc23)c1C", "CLASS_ASSIGNMENT": "inactive"}
{"COMPOUND": "CCN(CC)c1nc2ccccc2nc1C(C#N)C(=O)NCCc1ccccc1 (stereo not given)", "CLASS_ASSIGNMENT": "active"}
{"COMPOUND": "Cc1cc(-c2ccccc2)nc(N/N=C/c2ccccc2F)n1", "CLASS_ASSIGNMENT": "inactive"}
